Listed next: entries and their corresponding EC50.
SUBJECT OF TEST: CFTR (Homo sapiens, UniProt P13569, DEL508-508)
Construct: endogenous in cells; host or cells: primary human bronchial epithelial cells from CF subjects (F508del/MF-HBE), differentiated at air-liquid interface
Sequence (P13569 with tags, fused parts or gaps DEL508-508): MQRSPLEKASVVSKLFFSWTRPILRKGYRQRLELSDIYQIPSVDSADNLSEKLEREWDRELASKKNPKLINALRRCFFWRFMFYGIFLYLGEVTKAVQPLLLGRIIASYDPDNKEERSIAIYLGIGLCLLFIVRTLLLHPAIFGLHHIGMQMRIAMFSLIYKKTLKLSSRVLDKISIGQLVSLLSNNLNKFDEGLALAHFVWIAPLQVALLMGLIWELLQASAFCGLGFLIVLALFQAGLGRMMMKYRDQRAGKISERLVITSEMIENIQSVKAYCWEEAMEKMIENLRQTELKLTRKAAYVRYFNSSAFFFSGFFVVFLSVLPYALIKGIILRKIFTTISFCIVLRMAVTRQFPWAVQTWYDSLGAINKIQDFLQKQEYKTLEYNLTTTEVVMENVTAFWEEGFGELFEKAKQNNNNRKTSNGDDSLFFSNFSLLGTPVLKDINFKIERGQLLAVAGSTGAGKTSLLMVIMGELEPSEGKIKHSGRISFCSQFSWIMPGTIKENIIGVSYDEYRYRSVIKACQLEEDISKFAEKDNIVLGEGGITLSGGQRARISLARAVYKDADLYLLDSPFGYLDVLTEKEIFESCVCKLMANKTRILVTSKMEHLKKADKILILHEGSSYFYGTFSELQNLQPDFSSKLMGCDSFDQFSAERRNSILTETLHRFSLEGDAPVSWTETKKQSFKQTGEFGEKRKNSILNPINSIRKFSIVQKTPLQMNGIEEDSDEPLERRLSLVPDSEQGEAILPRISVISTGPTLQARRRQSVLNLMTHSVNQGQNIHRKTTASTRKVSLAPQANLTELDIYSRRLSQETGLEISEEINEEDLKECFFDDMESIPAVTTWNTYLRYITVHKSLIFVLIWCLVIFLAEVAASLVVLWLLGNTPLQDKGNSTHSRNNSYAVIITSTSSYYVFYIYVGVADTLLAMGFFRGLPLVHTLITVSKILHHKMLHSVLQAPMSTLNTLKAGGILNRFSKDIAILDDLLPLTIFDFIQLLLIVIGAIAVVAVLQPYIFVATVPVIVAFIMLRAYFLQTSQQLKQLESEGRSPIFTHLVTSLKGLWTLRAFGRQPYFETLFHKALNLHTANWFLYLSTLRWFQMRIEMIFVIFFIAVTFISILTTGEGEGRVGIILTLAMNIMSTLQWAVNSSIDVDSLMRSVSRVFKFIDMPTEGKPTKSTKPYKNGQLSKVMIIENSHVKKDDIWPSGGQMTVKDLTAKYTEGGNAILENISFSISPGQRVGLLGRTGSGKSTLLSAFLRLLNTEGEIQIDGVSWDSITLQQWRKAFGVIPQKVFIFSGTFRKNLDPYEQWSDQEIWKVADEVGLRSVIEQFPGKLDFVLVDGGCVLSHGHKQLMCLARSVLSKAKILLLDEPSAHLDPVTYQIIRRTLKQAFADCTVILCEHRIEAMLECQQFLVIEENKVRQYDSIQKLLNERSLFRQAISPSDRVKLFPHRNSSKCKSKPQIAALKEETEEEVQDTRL
PROTOCOL: HBE assay: Ussing chamber assay of CFTR-mediated short-circuit currents
Assay type: cell-based
CONDITION: Table 12; read-out: HBE EC50

>  <MOLECULE>
Cc1cccc(C)c1-c1cc2nc(n1)NS(=O)(=O)c1cccc(c1)C(=O)N(Cc1nccc(N3CCCC3(C)C)n1)[C@H](CC(C)(C)C)CO2

>  <SUBJECT OF TEST>
CFTR (Homo sapiens, UniProt P13569, DEL508-508)

>  <EC50>
< 1000 nM

$$$$
>  <MOLECULE>
Cc1cccc(C)c1-c1cc2nc(n1)NS(=O)(=O)c1cccc(c1)C(=O)N(Cc1ncc(N3CCC(OC(C)C)CC3)cn1)[C@H](CC(C)(C)C)CO2

>  <SUBJECT OF TEST>
CFTR (Homo sapiens, UniProt P13569, DEL508-508)

>  <EC50>
< 1000 nM

$$$$
>  <MOLECULE>
COCCN(c1cccc(CN2C(=O)c3cccc(c3)S(=O)(=O)Nc3nc(cc(-c4c(C)cccc4C)n3)OC[C@H]2CC(C)(C)C)n1)C(C)C

>  <SUBJECT OF TEST>
CFTR (Homo sapiens, UniProt P13569, DEL508-508)

>  <EC50>
< 1000 nM

$$$$
>  <MOLECULE>
COCC(C)N(C)c1cncc(CN2C(=O)c3cccc(c3)S(=O)(=O)Nc3nc(cc(-c4c(C)cccc4C)n3)OC[C@H]2CC(C)(C)C)n1 (some centres unmarked)

>  <SUBJECT OF TEST>
CFTR (Homo sapiens, UniProt P13569, DEL508-508)

>  <EC50>
< 1000 nM

$$$$
>  <MOLECULE>
Cc1cccc(C)c1-c1cc2nc(n1)NS(=O)(=O)c1cccc(c1)C(=O)N(Cc1cncc(N(C)CC(C)(C)C)n1)[C@H](C(C)C)CO2

>  <SUBJECT OF TEST>
CFTR (Homo sapiens, UniProt P13569, DEL508-508)

>  <EC50>
< 1000 nM

$$$$
>  <MOLECULE>
Cc1cccc(C)c1-c1cc2nc(n1)NS(=O)(=O)c1cccc(c1)C(=O)N(Cc1cccc(N3CCCC3C(C)C)n1)[C@H](CC(C)(C)C)CO2 (some centres unmarked) [Compound 547]

>  <SUBJECT OF TEST>
CFTR (Homo sapiens, UniProt P13569, DEL508-508)

>  <EC50>
< 1000 nM

$$$$
>  <MOLECULE>
COC[C@H]1CCCN1c1cccc(CN2C(=O)c3cccc(c3)S(=O)(=O)Nc3nc(cc(-c4c(C)cccc4C)n3)OC[C@H]2CC(C)(C)C)n1

>  <SUBJECT OF TEST>
CFTR (Homo sapiens, UniProt P13569, DEL508-508)

>  <EC50>
< 1000 nM

$$$$
>  <MOLECULE>
Cc1cccc(C)c1-c1cc2nc(n1)NS(=O)(=O)c1cccc(c1)C(=O)N(Cc1ncc(N3CCC(C)(C)CC3)cc1F)[C@H](CC(C)(C)C)CO2

>  <SUBJECT OF TEST>
CFTR (Homo sapiens, UniProt P13569, DEL508-508)

>  <EC50>
< 1000 nM

$$$$
>  <MOLECULE>
COC[C@H]1CCCN1c1cnc(CN2C(=O)c3cccc(c3)S(=O)(=O)Nc3nc(cc(-c4c(C)cccc4C)n3)OC[C@H]2CC(C)(C)C)nc1

>  <SUBJECT OF TEST>
CFTR (Homo sapiens, UniProt P13569, DEL508-508)

>  <EC50>
< 1000 nM

$$$$
>  <MOLECULE>
Cc1cccc(C)c1-c1cc2nc(n1)NS(=O)(=O)c1cccc(c1)C(=O)N(Cc1cncc(C3CCCCC3)c1)[C@H](CC(C)(C)C)CO2

>  <SUBJECT OF TEST>
CFTR (Homo sapiens, UniProt P13569, DEL508-508)

>  <EC50>
< 1000 nM

$$$$
>  <MOLECULE>
Cc1cccc(C)c1-c1cc2nc(n1)NS(=O)(=O)c1cccc(c1)C(=O)N(Cc1ncc(N(C)C3CC4(CC4)C3)cn1)[C@H](CC(C)(C)C)CO2

>  <SUBJECT OF TEST>
CFTR (Homo sapiens, UniProt P13569, DEL508-508)

>  <EC50>
< 1000 nM

$$$$
>  <MOLECULE>
COC[C@H]1CCCN1c1cncc(CN2C(=O)c3cccc(c3)S(=O)(=O)Nc3nc(cc(-c4c(C)cccc4C)n3)OC[C@H]2CC(C)(C)C)n1

>  <SUBJECT OF TEST>
CFTR (Homo sapiens, UniProt P13569, DEL508-508)

>  <EC50>
< 1000 nM

$$$$
>  <MOLECULE>
Cc1cccc(C)c1-c1cc2nc(n1)NS(=O)(=O)c1cccc(c1)C(=O)N(Cc1cnc(N3CCC(C)(C)C3)nc1)[C@H](CC(C)(C)C)CO2

>  <SUBJECT OF TEST>
CFTR (Homo sapiens, UniProt P13569, DEL508-508)

>  <EC50>
< 1000 nM

$$$$
>  <MOLECULE>
Cc1cccc(C)c1-c1cc2nc(n1)NS(=O)(=O)c1cccc(c1)C(=O)N(Cc1ncc(N3CC[C@](C)(O)C3)cn1)[C@H](CC(C)(C)C)CO2

>  <SUBJECT OF TEST>
CFTR (Homo sapiens, UniProt P13569, DEL508-508)

>  <EC50>
< 1000 nM

$$$$
>  <MOLECULE>
Cc1cccc(C)c1-c1cc2nc(n1)NS(=O)(=O)c1cccc(c1)C(=O)N(Cc1cccc(NC34CC(C3)C4)n1)[C@H](CC(C)(C)C)CO2

>  <SUBJECT OF TEST>
CFTR (Homo sapiens, UniProt P13569, DEL508-508)

>  <EC50>
< 1000 nM

$$$$
>  <MOLECULE>
COc1cccc(C)c1-c1cc2nc(n1)NS(=O)(=O)c1cccc(c1)C(=O)N(Cc1ncc(N3CCC(C)(C)C3)cn1)[C@H](CC(C)(C)C)CO2

>  <SUBJECT OF TEST>
CFTR (Homo sapiens, UniProt P13569, DEL508-508)

>  <EC50>
< 1000 nM

$$$$
>  <MOLECULE>
Cc1cccc(C)c1-c1cc2nc(n1)NS(=O)(=O)c1cccc(c1)C(=O)N(Cc1ncc(N3CC4(CCC4)C3)cn1)[C@H](CC(C)(C)C)CO2

>  <SUBJECT OF TEST>
CFTR (Homo sapiens, UniProt P13569, DEL508-508)

>  <EC50>
< 1000 nM

$$$$

====

SUBJECT OF TEST: CFTR (Homo sapiens, UniProt P13569, DEL508-508)
Construct: endogenous in cells; host or cells: primary human bronchial epithelial cells from CF subjects (F508del/MF-HBE), differentiated at air-liquid interface
PROTOCOL: HBE assay: Ussing chamber assay of CFTR-mediated short-circuit currents
Format: cell-based
CONDITION: Table 12; read-out: HBE EC50
Listed next: entries and their corresponding EC50.
MEASURED ENDPOINT: EC50

>  <MOLECULE>
Cc1cccc(C)c1-c1cc2nc(n1)NS(=O)(=O)c1cccc(c1)C(=O)N(Cc1ccc(C3CC(C)(C)CCO3)cn1)[C@H](CC(C)(C)C)CO2 (stereo partly drawn)

>  <RESULT>
< 1 µM

$$$$
>  <MOLECULE>
Cc1cccc(C)c1-c1cc2nc(n1)NS(=O)(=O)c1cccc(c1)C(=O)N(Cc1ncc(OC3CCCCC3)cn1)[C@H](CC(C)(C)C)CO2

>  <RESULT>
< 1 µM

$$$$
>  <MOLECULE>
Cc1cccc(C)c1-c1cc2nc(n1)NS(=O)(=O)c1cccc(c1)C(=O)N(Cc1cncc(N(C)CCOC(C)C)n1)[C@H](CC(C)(C)C)CO2

>  <RESULT>
< 1 µM

$$$$
